# testSummary: Compound solubility in water
# Assay type: physicochemical
measurementLabel: solubility (µg/mL)

Completed entries (count: 3):
COc1nc(C)cn1C(=O)NCCCn1ccc(C(C)(C)C)n1 [Example 179] :: 22
COc1nc(C(C)(C)C)cn1C(=O)NC1CCOCC1 [Example 114] :: 29
N#Cc1ccc(-c2cn(C(=O)NCCc3ccccc3)cn2)cn1 [Example 28] :: 5

(A) COc1nc(C(C)(C)C)cn1C(=O)NC1CC1 [Example 113]
(B) Cc1cn(C(=O)NC2CCC(F)(F)CC2)c(Oc2ccccc2)n1 [Example 172]
Decide: A or B , by lowest recorded solubility. Write the label of whichever entry you select.
B

(I) Cc1cn(C(=O)NC2CC2)c(Oc2ccccc2)n1 [Example 147]
(II) COc1nc(C2CCCC2)cn1C(=O)NCCCOc1ccccc1 [Example 105]
Of I and II , which one carries the higher reported solubility? Write the label of whichever entry you select.
I
(I: 29 µg/mL, II: 14 µg/mL)

* * *

# testSummary: Compound solubility in water
# Assay type: physicochemical
measurementLabel: solubility (µg/mL)

Completed entries (count: 6):
COc1nc(C2(C)CCC(=O)N2C)cn1C(=O)NCCC(C)C (stereo not shown) [Example 82] :: 31
CC(C)CCCCNC(=O)n1cnc(-c2cccnc2)c1 [Example 39] :: 2.7
O=C(NCCCc1ccccc1)n1cnc(-c2cccnc2)c1 [Example 14] :: 14.3
COc1nc(C(C)(C)C)cn1C(=O)NCCc1ccccc1 [Example 11] :: 15.1
CC(C)OCCNC(=O)n1cnc(-c2cccnc2)c1 [Example 24] :: 12.6
COc1nccn1C(=O)NCCC(C)C [Example 78] :: 28

(a) CC(C)CCNC(=O)n1cnc(C2CCN(C)CC2)c1 [Example 48]
(b) COc1nc(C)c(C)n1C(=O)NCCc1ccccc1 [Example 170]
(c) Cc1nc(-c2ccccc2)cn1C(=O)NCCc1ccccc1 [Example 7]
Hey, quick one: sort these by solubility, low to high? Answer by listing the labels in the requested order.
c, b, a

* * *

Measured pIC50 values are reported for all entries that follow.
# targetOrSystem: acid ceramidase (hACR) (Homo sapiens)
# Construct: expressed in transfected cells
# Sequence (Q13510 22-395): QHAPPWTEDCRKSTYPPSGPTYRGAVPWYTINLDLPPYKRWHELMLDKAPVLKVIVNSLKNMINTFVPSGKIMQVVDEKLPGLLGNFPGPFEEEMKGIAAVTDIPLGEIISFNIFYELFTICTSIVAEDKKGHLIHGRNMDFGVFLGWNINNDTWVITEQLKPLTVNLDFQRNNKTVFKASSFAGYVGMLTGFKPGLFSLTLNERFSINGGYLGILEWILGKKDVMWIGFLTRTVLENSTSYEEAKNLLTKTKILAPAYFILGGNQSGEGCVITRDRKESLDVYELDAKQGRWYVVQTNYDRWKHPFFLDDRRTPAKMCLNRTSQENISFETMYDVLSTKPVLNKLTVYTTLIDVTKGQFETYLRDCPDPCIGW
# testSummary: Acid ceramidase inhibition, biochemical fluorescent assay with cell lysates overexpressing acid ceramidase (substrate Rbm14-12)
# studyConditions: cell lysate, 1 hr preincubation at RT, pH 4.5, Rbm14-12 6.3 μM; read-out: IC50 hACR
pIC50: −log10 of the molar value.

Completed entries (count: 10):
COc1nc(C(C)(C)C)cn1C(=O)NCCC(C)C :: 6.00 to 6.70
COc1nc(C2CCOC2)cn1C(=O)NCCCc1ccccc1 (stereo not drawn) :: > 6.70
COc1nc(C)cn1C(=O)NCCCCC1(C(F)(F)F)CC1 :: > 6.70
Cc1cn(C(=O)NC2CCC(F)(F)CC2)c(Oc2cccc(C#N)c2)n1 :: > 6.70
O=C(NCCc1ccccc1)n1cnc(-c2ccc(F)nc2)c1 :: > 6.70
COc1nc(C2CCCC2)cn1C(=O)NC1CC1 :: 6.00 to 6.70
CN(C)Cc1ccc(-c2cn(C(=O)NCCc3ccccc3)cn2)cc1 :: > 6.70
COc1nc(-c2cccnc2)cn1C(=O)NCCC1CC1 :: < 6.00
COc1nc(C2CC2)cn1C(=O)NCCc1ccccc1 :: 6.00 to 6.70
COc1nc(C(C)(C)C)cn1C(=O)NCC(C)C :: 6.00 to 6.70

Which pIC50 value is on record for COc1nc(C(C)(C)C#N)cn1C(=O)NCCC(C)C ?
< 6.00

Which pIC50 value is on record for COc1ccc(-c2cn(C(=O)NCCC3(C(F)(F)F)CC3)cn2)cn1 ?
> 6.70

* * *

# testSummary: Compound solubility in water
# Assay type: physicochemical
measurementLabel: solubility (µg/mL)

Completed entries (count: 3):
COc1ccc(-c2cn(C(=O)NCCC3(C(F)(F)F)CC3)c(OC)n2)cn1 :: 6
CC(C)(C)CCNC(=O)n1cnc(-c2cccnc2)c1 :: 12.1
COc1ccc(-c2cn(C(=O)NCCC(C)C)cn2)cn1 :: 2.9

(I) O=C(NCCC1(C(F)(F)F)CC1)n1cnc(-c2ccccc2)c1
(II) CC(C)(CNC(=O)n1cnc(-c2cccnc2)c1)c1ccccc1
(III) COc1nc(C)cn1C(=O)NCCCCC1(C(F)(F)F)CC1
(IV) COCCOc1nc(C(C)(C)C)cn1C(=O)NCCC(C)C
Hey, quick one: sort these by solubility, low to high? Answer by listing the labels in the requested order.
I, II, IV, III

(I) CC(C)CNC(=O)n1cnc(C(C)(C)C)c1
(II) COc1nc(C2CCCO2)cn1C(=O)NCCC(C)C (stereo not shown)
Decide: I or II , by lowest recorded solubility. Write the label of whichever entry you select.
I
(I: 17 µg/mL, II: 25 µg/mL)

* * *

# testSummary: Compound solubility in water
# Format: physicochemical
measurementLabel: solubility (µg/mL)

Completed entries (count: 4):
CC(C)CCNC(=O)n1cnc(C2CCCN(C)C2)c1 (centres unmarked) [Example 47] :: 32.2
COc1nc(C)cn1C(=O)NCC#CC(C)C [Example 180] :: 17
CN1CCC(c2cn(C(=O)NCCCC3(C(F)(F)F)CC3)cn2)CC1 [Example 174] :: 25
O=C(NCCCC1(C(F)(F)F)CC1)n1cnc(-c2cccnc2N2CCCCC2)c1 [Example 175] :: 1

(1) O=C(NCCc1ccccc1)n1cnc(-c2ccc(F)nc2)c1 [Example 30]
(2) Cc1cn(C(=O)NC2CCC(F)(F)CC2)c(Oc2ccc(N3CCOCC3)cc2)n1 [Example 165]
Of 1 and 2 , which one carries the higher reported solubility? Write the label of whichever entry you select.
2
(2: 21 µg/mL, 1: 3.4 µg/mL)

* * *

# targetOrSystem: acid ceramidase (hACR) (Homo sapiens)
# Construct: expressed in transfected cells
# Sequence (Q13510 22-395): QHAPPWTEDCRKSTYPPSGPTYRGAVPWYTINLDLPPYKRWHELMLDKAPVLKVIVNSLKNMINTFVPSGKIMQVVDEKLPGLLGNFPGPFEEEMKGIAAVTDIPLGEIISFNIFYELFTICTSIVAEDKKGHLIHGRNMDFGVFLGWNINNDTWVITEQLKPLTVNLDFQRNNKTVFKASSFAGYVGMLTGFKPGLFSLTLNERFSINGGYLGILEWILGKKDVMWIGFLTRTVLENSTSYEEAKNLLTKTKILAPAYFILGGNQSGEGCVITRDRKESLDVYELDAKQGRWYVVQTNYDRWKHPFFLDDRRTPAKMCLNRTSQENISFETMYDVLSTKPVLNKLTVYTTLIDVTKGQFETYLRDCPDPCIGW
# testSummary: Acid ceramidase inhibition, biochemical fluorescent assay with cell lysates overexpressing acid ceramidase (substrate Rbm14-12)
# studyConditions: cell lysate, 1 hr preincubation at RT, pH 4.5, Rbm14-12 6.3 μM; read-out: IC50 hACR
pIC50: −log10 of the molar value.
Measured pIC50 values are reported for all entries that follow.

Completed entries (count: 8):
COc1nc(C2CCC(F)(F)CC2)cn1C(=O)NCCC(C)C [Example 111] :: 6.00 to 6.70
CCC(C)CNC(=O)n1cnc(-c2cccnc2)c1 (stereo not shown) [Example 60] :: 6.00 to 6.70
CC(C)CCNC(=O)n1cnc(-c2ccccc2C2CCN(C)CC2)c1 [Example 38] :: 6.00 to 6.70
CC(CCNC(=O)n1cnc(-c2cccnc2)c1)c1ccccc1 (stereo not shown) [Example 16] :: > 6.70
COc1nc(C)cn1C(=O)NCCCOc1ccccc1 [Example 144] :: > 6.70
O=C(NCCc1ccccc1)n1cnc(-c2ccccn2)c1 [Example 4] :: 6.00 to 6.70
COc1ccc(-c2cn(C(=O)NCCc3ccccc3)cn2)cn1 [Example 31] :: > 6.70
CCOc1nc(C(C)(C)C)cn1C(=O)NCCC1CC1 [Example 92] :: 6.00 to 6.70

Which pIC50 value is on record for COc1nc(C)cn1C(=O)NCCCn1ccc(C(C)(C)C)n1 [Example 179] ?
> 6.70

Which pIC50 value is on record for COc1nc(-c2cccnc2N2CCN(C)CC2)cn1C(=O)NCCCC1(C(F)(F)F)CC1 [Example 195] ?
< 6.00
